Reported %Inh values for the following compounds.
system: TAOK3; conditions: concentration: 1 μM, replicates: in singlicate; n = 1;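 note: KINOMEscan kinase panel screen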

[
  {
    "compound": "Cc1cc(-c2c(-c3ccc(F)cc3)ncn2CCCN2CCOCC2)nc(N)n1 [SB-222517]",
    "unit tag": "%",
    "%Inh": 0
  },
  {
    "compound": "CC(C)c1nc(-c2cccc(NS(=O)(=O)c3c(F)cccc3F)c2)c(-c2ccnc(Nc3ccc(N4CCOCC4)nc3)n2)s1.Cl [GSK1723980]",
    "unit tag": "%",
    "%Inh": 0
  },
  {
    "compound": "Nc1ncc(-c2cn[nH]c2)c2scc(-c3ccc4c(c3)CCN4C(=O)Cc3ccccc3)c12 [GSK2593067]",
    "unit tag": "%",
    "%Inh": 0
  },
  {
    "compound": "COC(=O)Nc1nc2cc(Oc3ccc(NC(=O)Nc4cccc(SC)c4)cc3)ccc2[nH]1.Cl [GW697999]",
    "unit tag": "%",
    "%Inh": 0
  },
  {
    "compound": "c1ccc(Oc2ccc(Nc3ccnc4cc(-c5ccc(CN6CCCCC6)o5)ccc34)cc2)nc1 [GW567143]",
    "unit tag": "%",
    "%Inh": 0
  },
  {
    "compound": "Nc1ncc(-c2ccc3nccc(-c4ccncc4)c3c2)cc1S(=O)(=O)N1CCCCC1 [GSK1693850]",
    "unit tag": "%",
    "%Inh": 5
  },
  {
    "compound": "Cc1cccc(Nc2nc(NCCN)ncc2C(N)=O)c1 [GSK1292139]",
    "unit tag": "%",
    "%Inh": 9
  },
  {
    "compound": "COc1cc(Nc2ccnc3cc(-c4ccncc4)ccc23)cc(OC)c1OC.Cl [GW494610]",
    "unit tag": "%",
    "%Inh": 0
  },
  {
    "compound": "Cc1nn2c(=O)cc(N3CCO[C@H](C)C3)nc2n1Cc1cccc(Cl)c1Cl [GSK2373693]",
    "unit tag": "%",
    "%Inh": 3
  },
  {
    "compound": "CN1CCN(Cc2ccc(NC(=O)Nc3ccc(N(C)c4ccnc(Nc5ccc(CS(C)(=O)=O)cc5)n4)cc3)cc2)CC1.Cl [GW827654]",
    "unit tag": "%",
    "%Inh": 0
  },
  {
    "compound": "O=C(Nc1n[nH]c2nc(-c3cccc(O)c3)ccc12)C1CC1 [SB-711805]",
    "unit tag": "%",
    "%Inh": 34
  }
]

###

system: PIK3CG; settings: concentration: 1 μM, replicates: in singlicate; n = 1
Reported %Inh values for the following molecules.

[
  {
    "molecule": "CC(C)NCC(Cc1ccccc1)NC(=O)c1cc(Br)c(-c2ccnc3[nH]ccc23)s1.Cl.Cl (centres unmarked) [GSK1383281]",
    "%Inh": "0%"
  },
  {
    "molecule": "CC(C)c1nc(-c2cccc(NS(=O)(=O)c3c(F)cccc3F)c2)c(-c2ccnc(Nc3ccc(N4CCOCC4)nc3)n2)s1.Cl [GSK1723980]",
    "%Inh": "0%"
  },
  {
    "molecule": "CCNc1nccc(-c2c(-c3ccc(F)cc3)ncn2C2CCN(C)CC2)n1",
    "%Inh": "10%"
  },
  {
    "molecule": "c1ccc(Oc2ccc(Nc3ccnc4cc(-c5ccc(CN6CCCCC6)o5)ccc34)cc2)nc1 [GW567143]",
    "%Inh": "0%"
  },
  {
    "molecule": "Cc1ccc(NC(=O)c2ccc(Cl)c(Cl)c2)cc1-c1ccc(C(=O)Nc2ccncc2)cc1 [GSK1398460]",
    "%Inh": "0%"
  },
  {
    "molecule": "NCCC(NC(=O)c1cc(Br)c(-c2ccnc3[nH]ccc23)s1)c1ccccc1.O=C(O)C(F)(F)F.O=C(O)C(F)(F)F (centres unmarked) [GSK1307810]",
    "%Inh": "2%"
  },
  {
    "molecule": "Cl.Cl.NC(CNC(=O)c1cc(Br)c(-c2ccnc3[nH]ccc23)s1)c1ccccc1 (centres unmarked) [GSK1322949]",
    "%Inh": "22%"
  },
  {
    "molecule": "CN(c1ccc(NC(=O)Nc2cccc(Cl)c2)cc1)c1ccnc(N)n1.Cl [GW830707]",
    "%Inh": "0%"
  },
  {
    "molecule": "Cl.Cl.NCC(NC(=O)c1cc(-c2cccnc2)c(-c2ccnc3[nH]ccc23)s1)c1ccccc1 (centres unmarked) [GSK1323434]",
    "%Inh": "0%"
  },
  {
    "molecule": "CN1CCN(Cc2ccc(NC(=O)Nc3ccc(N(C)c4ccnc(Nc5ccc(CS(C)(=O)=O)cc5)n4)cc3)cc2)CC1.Cl [GW827654]",
    "%Inh": "26%"
  },
  {
    "molecule": "COc1ccc(C2=C(Nc3cccc(O)c3)C(=O)NC2=O)cc1 [SB-390766]",
    "%Inh": "0%"
  },
  {
    "molecule": "O=C(O)C(F)(F)F.O=c1[nH]ccc2nc(N[C@@H]3CCNC3)nc(Nc3ccc4c(c3)S(=O)(=O)CC4)c12 [GSK2181306]",
    "%Inh": "86%"
  },
  {
    "molecule": "COC(=O)Nc1nc2ccc(Oc3ccc(NC(=O)Nc4cc(C(F)(F)F)ccc4F)cc3)cc2[nH]1.Cl [GW654607]",
    "%Inh": "3%"
  },
  {
    "molecule": "O=C(Nc1n[nH]c2nc(-c3ccccc3O)ccc12)C1CC1 [SB-711880]",
    "%Inh": "17%"
  }
]

###

tested on: EPHA8; settings: concentration: 1 μM, replicates: in singlicate; n = 1

[
  {
    "chemical string": "Nc1ncnc2scc(-c3ccc(NC(=O)Cc4cc(F)ccc4F)cc3)c12.O=C(O)C(F)(F)F",
    "%Inh / %": 0
  },
  {
    "chemical string": "Nc1ncc(-c2ccc3nccc(-c4ccncc4)c3c2)cc1S(=O)(=O)N1CCCCC1",
    "%Inh / %": 8
  },
  {
    "chemical string": "Cc1cccc(Nc2nc(N[C@H]3CCCC[C@H]3N)ncc2C(N)=O)c1.Cl",
    "%Inh / %": 9
  },
  {
    "chemical string": "N#Cc1cnc2cc(-c3cnc(CNCCN4CCOCC4)s3)ccc2c1Nc1ccc(Oc2ccccc2)cc1",
    "%Inh / %": 25
  },
  {
    "chemical string": "CN(c1ccc2c(c1)nc(NCc1ccccc1)n2C)c1ccnc(Nc2ccc(CS(C)(=O)=O)cc2)n1.Cl",
    "%Inh / %": 47
  },
  {
    "chemical string": "O=C1NC(=O)C(c2ccccc2Cl)=C1Nc1cccc(Cl)c1",
    "%Inh / %": 19
  },
  {
    "chemical string": "COc1cccc(NC(=O)NCCNc2ccnc(Nc3ccc(F)cc3)n2)c1",
    "%Inh / %": 2
  }
]

###

test system: CDK2; details: concentration: 1 μM, replicates: in singlicate; n = 1

[
  {
    "compound": "O=C1NC(=O)C(c2ccccc2Cl)=C1Nc1cccc(Cl)c1 [SB-342409]",
    "unit tag": "%",
    "%Inh": 1
  },
  {
    "compound": "Cn1cc(-c2ccc3c(c2)CCN3C(=O)Cc2cc(F)cc(C(F)(F)F)c2)c2c(N)ncnc21 [GSK2635225]",
    "unit tag": "%",
    "%Inh": 6
  },
  {
    "compound": "O=C(Nc1c(F)cccc1F)c1cc(C(=O)c2ccccc2F)c[nH]1 [GSK1326180]",
    "unit tag": "%",
    "%Inh": 0
  },
  {
    "compound": "Cc1cc(-c2ccnc(Nc3cccc(C#N)c3)n2)cc(C)c1O [GSK1440913]",
    "unit tag": "%",
    "%Inh": 68
  },
  {
    "compound": "O=C(Nc1n[nH]c2cc(-c3cccs3)ccc12)C1CC1 [SB-731284]",
    "unit tag": "%",
    "%Inh": 65
  },
  {
    "compound": "CC(C)c1nc(-c2ccc(F)c(NS(=O)(=O)c3c(F)cccc3F)c2)c(-c2ccnc(Nc3ccc(N4CCOCC4)nc3)n2)s1 [GSK1804250]",
    "unit tag": "%",
    "%Inh": 95.5
  },
  {
    "compound": "COc1ccc(C2=C(Nc3cccc(O)c3)C(=O)NC2=O)cc1 [SB-390766]",
    "unit tag": "%",
    "%Inh": 98.3
  },
  {
    "compound": "NCCC(NC(=O)c1cc(Br)c(-c2ccnc3[nH]ccc23)s1)c1ccccc1.O=C(O)C(F)(F)F.O=C(O)C(F)(F)F (stereo not drawn) [GSK1307810]",
    "unit tag": "%",
    "%Inh": 0
  },
  {
    "compound": "c1ccc(Oc2ccc(Nc3ccnc4cc(-c5ccc(CN6CCCCC6)o5)ccc34)cc2)nc1 [GW567143]",
    "unit tag": "%",
    "%Inh": 0
  }
]
